- subjectOfTest: human TGR5 receptor (Homo sapiens, UniProt Q8TDU6)
- Sequence (Q8TDU6 1-330): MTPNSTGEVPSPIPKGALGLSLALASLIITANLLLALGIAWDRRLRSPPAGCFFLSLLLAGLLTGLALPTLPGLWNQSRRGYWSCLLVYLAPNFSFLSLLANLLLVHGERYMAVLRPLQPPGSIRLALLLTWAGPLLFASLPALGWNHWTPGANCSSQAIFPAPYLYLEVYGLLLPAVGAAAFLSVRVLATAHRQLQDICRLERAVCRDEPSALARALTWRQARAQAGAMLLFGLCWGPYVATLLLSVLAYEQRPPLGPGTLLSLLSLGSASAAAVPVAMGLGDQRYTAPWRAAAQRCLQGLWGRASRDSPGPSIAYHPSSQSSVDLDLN
- protocolNotes: Human TGR5 cAMP production assay (hTGR5-CHO cells, DiscoveRx cAMP XS+ kit)
- conditionDetails: luminescent cAMP assay, read-out: Human TGR5 Lum. cAMP Activity (EC50)
pEC50: −log10 of the molar value. Where a name gives a salt, the structure may show the parent alone.
recordedMetric: pEC50

Qu. State its pEC50: N#Cc1ccc(CCNC(=O)[C@@H]2CCN2c2cc(N3CCC(CN)CC3)nc(C(F)(F)F)n2)cc1 [Compound 245, hydrochloride]
Ans. 6.00 to 7.00

Qu. Answer with reported pEC50 of `N#Cc1ccc(CCNC(=O)[C@@H]2CCCN2c2cc(N3CCC(CCO)CC3)nc(C(F)(F)F)n2)cc1`
Ans. > 7.00

Qu. Give the measured pEC50 for `N#Cc1ccc(CCNC(=O)[C@@H]2CCN2c2cc(N3CCC(CCNC(=O)NCCC(=O)O)CC3)nc(C(F)(F)F)n2)cc1`
Ans. > 7.00
